Here the recorded viability, T/C is given for each entry.
Test system: MPNST complex spheroid with HUVEC/MSC, growth, % test/control
assayOverview: Anticancer human tumor MPNST cell line growth inhibition [Asc];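 note: compounds left on spheroids for seven days before reading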
conditionsUsed: second compound 1 µM; first compound 1 µM; stronger effect = lower value

| compound | viability, T/C, % |
| --- | --- |
| C#Cc1c(F)ccc2cc(O)cc(-c3ncc4c(N5CC6CCC(C5)N6)nc(OCC56CCCN5CC(F)C6)nc4c3F)c12 (configuration not stated) + CNC(C)C(=O)NC1CN(S(=O)(=O)c2cccc(S(=O)(=O)N3CCC4CCC(C(=O)NC(c5ccccc5)c5ccccc5)N4C(=O)C(NC(=O)C(C)NC)C3)c2)CCC2CCC(C(=O)NC(c3ccccc3)c3ccccc3)N2C1=O | 82.5 |
| C=CC(=O)N1CCN(c2nc(=O)n(-c3c(C)ccnc3C(C)C)c3nc(-c4c(O)cccc4F)c(F)cc23)C(C)C1 (configuration not stated) + Cc1c(S(C)(=O)=O)c(-c2cc(F)cc(N3CCN(c4ccc(NS(=O)(=O)c5ccc(NC(CCN6CCC(C(=O)OCCCP(=O)(O)O)CC6)CSc6ccccc6)c(S(=O)(=O)C(F)(F)F)c5)cc4)CC3)c2)c(-c2ccc(Cl)cc2)n1C(C)C | 89.9 |

---

Test system: MPNST complex spheroid with HUVEC/MSC, growth, % test/control
assayOverview: Anticancer human tumor MPNST cell line growth inhibition [Asc];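 note: compounds left on spheroids for seven days before reading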
conditionsUsed: curve of first compound; second compound 0.0316 µM
pIC50: −log10 of the molar value.

| compound | readingQualifier | pIC50 |
| --- | --- | --- |
| NC(=O)C(=Cn1cnc(-c2cc(C(F)(F)F)cc(C(F)(F)F)c2)n1)c1cncnc1 + CNC(C)C(=O)NC1CN(S(=O)(=O)c2cccc(S(=O)(=O)N3CCC4CCC(C(=O)NC(c5ccccc5)c5ccccc5)N4C(=O)C(NC(=O)C(C)NC)C3)c2)CCC2CCC(C(=O)NC(c3ccccc3)c3ccccc3)N2C1=O | = | 6.79 |
| CCN1C(C(=O)NC23CCC(C(=O)O)(CC2)CC3)C(c2cccc(Cl)c2F)C2(C(=O)Nc3cc(Cl)ccc32)C12CCCCC2 (stereo not given) + CNC(C)C(=O)NC1CN(S(=O)(=O)c2cccc(S(=O)(=O)N3CCC4CCC(C(=O)NC(c5ccccc5)c5ccccc5)N4C(=O)C(NC(=O)C(C)NC)C3)c2)CCC2CCC(C(=O)NC(c3ccccc3)c3ccccc3)N2C1=O | < | 5.52 |
| COc1c(OCCCN2CCOCC2)ccc2c3n(c(=NC(=O)c4cnc(N)nc4)nc12)CCN3 + CNC(C)C(=O)NC1CN(S(=O)(=O)c2cccc(S(=O)(=O)N3CCC4CCC(C(=O)NC(c5ccccc5)c5ccccc5)N4C(=O)C(NC(=O)C(C)NC)C3)c2)CCC2CCC(C(=O)NC(c3ccccc3)c3ccccc3)N2C1=O | = | 7.61 |
| NC1CCC(NC2CC2c2ccccc2)CC1 (stereo not given) + CNC(C)C(=O)NC1CN(S(=O)(=O)c2cccc(S(=O)(=O)N3CCC4CCC(C(=O)NC(c5ccccc5)c5ccccc5)N4C(=O)C(NC(=O)C(C)NC)C3)c2)CCC2CCC(C(=O)NC(c3ccccc3)c3ccccc3)N2C1=O | < | 7.00 |
| C=C(F)C(=O)N1CCN(c2nc(OCC3CCCN3C)nc3c2CCN(c2cccc4cccc(Cl)c24)C3)CC1CC#N (stereo not given) + CNC(C)C(=O)NC1CN(S(=O)(=O)c2cccc(S(=O)(=O)N3CCC4CCC(C(=O)NC(c5ccccc5)c5ccccc5)N4C(=O)C(NC(=O)C(C)NC)C3)c2)CCC2CCC(C(=O)NC(c3ccccc3)c3ccccc3)N2C1=O | = | 5.74 |

Data provenance is PubChem BioAssay AID1963442.
